studyTarget: T1, Claudin 18.2 (CLDN18.2), expressed on CHOS-CLDN 18.2 / HEK293-CLDN 18.2 / HCC827-CLDN 18.2 cells (human, UniProt P56856-2 1-261)
T1 construct: whole, on cells; The species is not repeated for the CHOS-CLDN 18.2 cells; also called claudin-18A2
assayComment: FACS, CHOS-CLDN18.2 cells, 10 µg/ml

- binder: "QP14371433 (antibody, human IgG1, kappa, V domains shown, Humanized from QP190191; also called QP14331437) VH: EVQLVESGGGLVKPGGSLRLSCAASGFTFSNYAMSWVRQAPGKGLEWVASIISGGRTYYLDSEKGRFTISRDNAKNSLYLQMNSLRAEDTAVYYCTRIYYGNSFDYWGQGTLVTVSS VL: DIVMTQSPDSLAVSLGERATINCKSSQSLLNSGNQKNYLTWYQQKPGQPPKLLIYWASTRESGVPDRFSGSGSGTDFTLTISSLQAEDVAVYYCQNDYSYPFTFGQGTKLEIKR"
  MFI: 433000
- binder: "QP14641460 (antibody, human IgG1, kappa, V domains shown, Humanized from QP207208) VH: EVQLVQSGAEVKKPGASVKVSCKASGYTFTSYIMHWVRQAPGQGLEWIGYINPYNDGTKYNEKFKGRVTLTRDKSTSTVYMELSSLRSEDTAVYYCARLGFTTRNAMDYWGQGTLVTVSS VL: DIVMTQSPDSLAVSLGERATINCKSSQSLLNSGNQKNYLAWYQQKPGQPPKLLIYGASTRESGVPDRFSGSGSGTDFTLTISSLQAEDVAVYYCQNDHSYPFTFGQGTKLEIKR"
  MFI: 604000
- binder: "QP192193 (antibody, human IgG1, V domains shown, Chimeric; also called 40F1; mouse-derived chimeric antibody QP192193) VH: QVQLQQSGAELVRPGSSVKISCKASGYAFSSYWMNWVKQRPGQGLEWIGQIYPGNGDTTYNGKFKGQATLTADKSSSTVYMQLSSLTSEDSAVYFCARFVKGNAMDYWGQGTSVTVSS VL: DIVMTQSPSSLTVTAGEKVTMSCKSSQSLLNSGNQKNYLTWYQQNPGQPPKMLIYWASTRESGVPDRFTGSGSGIDFSLTISSVQAEDLALYYCQNAYSYPFTFGSGTKLEIK"
  MFI: 644000
- binder: "QP14631461 (antibody, human IgG1, kappa, V domains shown, also called QP14611463) VH: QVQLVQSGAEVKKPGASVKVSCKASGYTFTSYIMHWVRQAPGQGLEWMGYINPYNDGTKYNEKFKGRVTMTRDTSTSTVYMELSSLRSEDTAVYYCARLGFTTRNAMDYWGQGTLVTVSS VL: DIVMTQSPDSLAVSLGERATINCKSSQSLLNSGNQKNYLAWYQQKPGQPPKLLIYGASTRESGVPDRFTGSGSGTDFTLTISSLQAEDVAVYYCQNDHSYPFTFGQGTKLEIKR"
  MFI: 657000
- binder: "QP14441441 (antibody, human IgG1, kappa, V domains shown, Humanized from QP192193) VH: QVQLVQSGAEVKKPGASVKVSCKASGYAFSSYWMNWVRQAPGQGLEWIGQIYPGNGDTTYNGKFKGRVTMTADKSTSTVYMELSSLRSEDTAVYYCARFVKGNAMDYWGQGTLVTVSS VL: DIVMTQSPDSLAVSLGERATISCKSSQSLLNSGNQKNYLTWYQQKPGQPPKLLIYWASTRESGVPDRFSGSGSGIDFTLTISSVQAEDVAVYYCQNAYSYPFTFGQGTKLEIKR"
  MFI: 693000
